Data origin, for the record: patent US12285432B2

experiment: Drug-drug interaction study of Compound (I) (CTP-543) and itraconazole in healthy volunteers, plasma pharmacokinetics; format: in vivo, human; settings: human, plasma, 12 mg
PARAMETER MEASURED: Cmax (ng/mL)
Your answer should be a plain number; it is taken to be in ng/mL.

Record `[2H]C1([2H])C([C@@H](CC#N)n2cc(-c3ncnc4[nH]ccc34)cn2)C([2H])([2H])C([2H])([2H])C1([2H])[2H]` , field Cmax: 266

###

test: Drug-drug interaction study of Compound (I) (CTP-543) and itraconazole in healthy volunteers, plasma pharmacokinetics; type: in vivo, human; conditions: human, plasma; read-out: half-life (converted)
PARAMETER MEASURED: half-life (h)
Use h as the unit, but write only the number.

Entry [2H]C1([2H])C([C@@H](CC#N)n2cc(-c3ncnc4[nH]ccc34)cn2)C([2H])([2H])C([2H])([2H])C1([2H])[2H] [Compound (I)] — recorded half-life = 4.62
